These entries and their values trace back to patent US20070259894A1.

assay: In vivo rat studies: plasma levels of Compound A with and without atazanavir; set-up: species or system Male Sprague-Dawley rats; settings: male, Sprague-Dawley, plasma, oral Compound A 10 mg/kg (K salt) on day 4 with oral atazanavir 50 mg/kg once a day
Endpoint: Cmax
Could you give the number and then its unit, please?

Return Cmax (reported value) for this molecule: Cc1nnc(C(=O)NC(C)(C)c2nc(C(=O)NCc3ccc(F)cc3)c(O)c(=O)n2C)o1 7.2 µM

----------
test: In vivo rat studies: plasma levels of Compound A with and without atazanavir; parameters: species or system Male Sprague-Dawley rats; details: male, Sprague-Dawley, plasma, Compound A control group, oral 10 mg/kg (K salt), no atazanavir
Endpoint: Cmax (nM)
Answers are plain numbers, in nM.

Return Cmax (reported value) for this compound: Cc1nnc(C(=O)NC(C)(C)c2nc(C(=O)NCc3ccc(F)cc3)c(O)c(=O)n2C)o1 2300

----------
test: In vivo human studies: plasma PK of Compound A with and without atazanavir; set-up: species or system healthy human male volunteers; conditions: male, plasma, oral, 100 mg Compound A in the presence of atazanavir 400 mg once daily, read-out: alpha phase half-life (converted)
Endpoint: half-life (h)
Give bare numbers, in h.

Return half-life (reported value) for this molecule: Cc1nnc(C(=O)NC(C)(C)c2nc(C(=O)NCc3ccc(F)cc3)c(O)c(=O)n2C)o1 [Compound A] 1.4

----------
assay: In vivo human studies: plasma PK of Compound A with and without atazanavir; parameters: species or system healthy human male volunteers; conditions: male, plasma, oral, 100 mg Compound A alone, read-out: alpha phase half-life (converted)
Endpoint: half-life (h)
Numbers only, in h.

Return half-life (reported value) for this molecule: Cc1nnc(C(=O)NC(C)(C)c2nc(C(=O)NCc3ccc(F)cc3)c(O)c(=O)n2C)o1 [Compound A] 1.1

----------
test: In vivo rat studies: plasma levels of Compound A with and without atazanavir; set-up: species or system Male Sprague-Dawley rats; conditions: male, Sprague-Dawley, plasma, Compound A control group, oral 10 mg/kg (K salt), no atazanavir
Endpoint: AUC (nM·h)
Numbers only, in nM·h.

Return AUC (reported value) for this compound: Cc1nnc(C(=O)NC(C)(C)c2nc(C(=O)NCc3ccc(F)cc3)c(O)c(=O)n2C)o1 [Compound A] 2900
